- study.system: EP4 (Homo sapiens (Human), UniProt P35408)
- Sequence (P35408 whole entry): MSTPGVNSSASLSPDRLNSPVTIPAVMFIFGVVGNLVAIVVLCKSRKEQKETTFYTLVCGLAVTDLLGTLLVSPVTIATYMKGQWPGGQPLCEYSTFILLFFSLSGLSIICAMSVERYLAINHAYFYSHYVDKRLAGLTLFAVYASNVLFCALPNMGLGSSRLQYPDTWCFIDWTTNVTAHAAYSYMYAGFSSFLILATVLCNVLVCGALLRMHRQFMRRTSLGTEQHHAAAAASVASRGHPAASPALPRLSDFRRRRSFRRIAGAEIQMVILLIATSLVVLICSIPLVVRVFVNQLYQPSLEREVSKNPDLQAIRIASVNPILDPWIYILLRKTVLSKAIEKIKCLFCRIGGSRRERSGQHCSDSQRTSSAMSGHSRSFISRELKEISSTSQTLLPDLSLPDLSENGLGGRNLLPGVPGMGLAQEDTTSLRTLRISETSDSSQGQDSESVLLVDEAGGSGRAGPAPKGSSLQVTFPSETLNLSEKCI
- protocol.summary: hEP4 cAMP assay (BT549 breast cancer cells, HTRF cAMP)
- Type: cell-based
- details: antagonistic activity, PGE2 6 nM
test.readout: IC50 (µM)

Some entries whose results are on file:
> print(dat)
                                   compound  readout.value
1  CCOc1cc(-c2cc(NCCc3ccc4c(c3)OCCC4)ncn2)ccc1C(=O)O [Ex 309]          0.677
2  Fc1cc2ncccc2c(F)c1CCNc1cc(-c2ccc3[nH]ccc3c2)ncn1 [Ex 330]           1.04
3  CSc1cc(-c2cc(NCCc3c(F)cc4ccccc4c3F)ncn2)ccc1CC(=O)O [Ex 270]          0.435
4  CCOc1cc(-c2cc(NCCc3ccc4ccsc4c3)ncn2)ccc1OCC(=O)O [Ex 144]          0.132
5  CCOc1cc(-c2cc(NCCc3cc4cccnc4c(F)c3Cl)ncn2)ccc1OCC(=O)O [Ex 301]          0.626

[a] CCOc1cc(-c2cc(NCCc3cc4ccsc4cc3OC)ncn2)ccc1CC(=O)O [Ex 118]
[b] CCOc1cc(-c2cc(NCCc3ccc4c(c3)OCCC4)ncn2)sc1C(=O)O [Ex 58]
[c] CCOc1cc(-c2cc(NCCc3ccc4sccc4c3)nc(C)n2)ccc1CC(=O)O [Ex 308]
[d] CCOc1cc(-c2cc(NCCc3ccc4ccccc4c3C)ncn2)ccc1NCC(=O)O [Ex 205]
List the 4 entries from lowest IC50 to highest IC50 value. In your reply, arrange the labels in the requested order.
b, a, d, c
(b: 0.03 µM, a: 0.088 µM, d: 0.244 µM, c: 0.674 µM)

* * *

- study.system: PTGER2 (EP2) (Homo sapiens (Human), UniProt P43116)
- protocol.summary: hEP2 b-arrestin assay (PathHunter HEK 293 PTGER2 b-arrestin cells)
- details: antagonistic activity, beta-arrestin assay; read-out: hEP2 b-arr IC50
test.readout: IC50 (nM)

> print(dat)
                                 cpd.smiles  readout.value
1  CCOc1cc(-c2cc(NCCc3cc4c(cc3C)OCCO4)ncn2)sc1C(=O)O             29
2  O=C(O)c1ccc(-c2cc(NCCc3cc(F)c4sccc4c3)ncn2)cc1O            985

[1] Fc1cc(CCNc2cc(-c3ccc4[nH]ccc4c3)ncn2)cc2ccsc12
[2] COc1cc2c(cc1CCNc1cc(-c3ccc(CC(=O)O)c(SC)c3)ncn1)OCCO2
[3] CCOc1cc(-c2cc(NCCc3ccc4c(c3)CCO4)ncn2)sc1C(=O)O
List by increasing IC50. Returns: the labels listed in the requested order.
2, 3, 1

[1] COc1cc2ccccc2c(C)c1CCNc1cc(-c2ccc(CC(=O)O)c(OC(F)F)c2)ncn1
[2] CCOc1cc(-c2cc(NCCc3ccc4ccccc4c3C)ncn2)ccc1Cc1noc(=O)[nH]1
Recorded IC50 values differ for 1 and 2 ; which one is higher? Respond with the label that goes with your answer.
2
(2: 297 nM, 1: 107 nM)

* * *

- study.system: PTGER4 (EP4) (Homo sapiens (Human))
- protocol.summary: cell-based
pIC50: −log10 of the molar value.
test.readout: pIC50

> print(dat)
                                 cpd.smiles                         study.system  readout.value
1  CCCc1cc(-c2cc(NCCc3cc4c(cc3C)OCCO4)ncn2)ccc1CC(=O)O  PTGER4 (EP4) (Homo sapiens (Human))           6.57

[1] CCOc1cc(-c2cc(NCCc3ccc4ccsc4c3)ncn2)ccc1C(=O)O
[2] CCOc1cc(-c2cc(NCCc3ccc4ccccc4c3C)ncn2)sc1C(=O)NS(N)(=O)=O
When 1 and 2 are compared, which has the higher number for pIC50? # answer = label of selected item
2
(2: 7.49, 1: 6.44)

[1] CCc1cc(-c2cc(NCCc3cc4c(cc3OC)OCCO4)ncn2)ccc1CC(=O)O
[2] CCCc1cc(-c2cc(NCCc3ccc4sccc4c3F)ncn2)ccc1C(=O)O
// select label with min value of measured pIC50 from [ 1 , 2 ] Identify your selection by its label.
1
(1: 6.59, 2: 7.44)

* * *

- study.system: PTGER4 (EP4) (Homo sapiens (Human), UniProt P35408)
- Sequence (P35408 whole entry): as above
- protocol.summary: cell-based
pIC50: −log10 of the molar value.
test.readout: pIC50

> print(dat)
                                   molecule  test.readout  readout.value
1  CCOc1cc(-c2cc(NCCc3c(OCC)cc4ccccc4c3C)ncn2)ccc1CC(=O)O [Example 420]         pIC50           7.52
2  CCOc1cc(-c2cc(NCCc3cc4ccccc4cc3Cl)ncn2)sc1C(=O)O [Ex 62]         pIC50           7.80
3  CSc1cc(-c2cc(NCCc3ccc4c(c3)CCC4)ncn2)ccc1C(=O)O [Ex 185]         pIC50           6.59

[P] CCOc1cc(-c2cc(NCCc3ccc4cc[nH]c4c3)ncn2)ccc1OCC(=O)O [Ex 194]
[Q] CCOc1cc(-c2cc(NCCc3cc4c(cc3SC)OCCO4)ncn2)sc1C(=O)O [Ex 78]
[R] O=C(O)c1ccc(-c2cc(NCCc3ccc4sccc4c3F)ncn2)cc1OC1CCC1 [Example 366]
Rank the 3 molecules: largest pIC50 first, smallest last. Provide the ranking by listing each label in its place in the requested order.
Q, R, P
(Q: 7.68, R: 6.92, P: 6.49)

* * *

- study.system: EP2 (Homo sapiens (Human), UniProt P43116)
- Sequence (P43116 whole entry): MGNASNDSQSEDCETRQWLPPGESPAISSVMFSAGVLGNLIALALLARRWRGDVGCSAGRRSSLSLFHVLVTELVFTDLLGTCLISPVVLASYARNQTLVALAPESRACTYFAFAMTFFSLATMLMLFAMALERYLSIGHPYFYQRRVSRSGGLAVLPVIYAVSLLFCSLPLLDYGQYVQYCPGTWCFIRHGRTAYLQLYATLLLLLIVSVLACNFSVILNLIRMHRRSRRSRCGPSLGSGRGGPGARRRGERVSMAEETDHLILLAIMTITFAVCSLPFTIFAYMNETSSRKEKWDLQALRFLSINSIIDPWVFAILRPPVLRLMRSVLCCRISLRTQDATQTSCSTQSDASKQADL
- protocol.summary: hEP2 cAMP assay (SF295 glioblastoma cells, HTRF cAMP)
- details: antagonistic activity
pIC50: −log10 of the molar value.
test.readout: pIC50

The cases that follow already have their pIC50 on record.
> print(dat)
                                 cpd.smiles  test.readout  readout.value
1  CC(C)Oc1cc2ccccc2cc1CCNc1cc(-c2ccc(C(=O)O)c(OC3CCC3)c2)ncn1         pIC50           4.93
2  CCOc1cc(-c2cc(NCCc3ccc4sccc4c3)nc(C)n2)sc1C(=O)O         pIC50           7.24
3  CCCCOc1cc(-c2cc(NCCc3cc(F)c4sccc4c3)ncn2)ccc1C(=O)O         pIC50           6.22

[1] Cc1c(CCNc2cc(-c3ccc(C(=O)O)c(OC4CCC4)c3)ncn2)ccc2sccc12
[2] CSc1cc(-c2cc(NCCc3c(F)cc4ccccc4c3F)ncn2)ccc1CC(=O)O
[3] CCSc1cc(-c2cc(NCCc3cc4ccoc4cc3OC)ncn2)ccc1C(=O)O
Number of compounds to sort: 3. Sort criterion: pIC50, ascending. Respond with an ordered listing of the labels, as requested.
2, 1, 3

* * *

- study.system: EP4 (Homo sapiens (Human), UniProt P35408)
- protocol.summary: hEP4 cAMP assay (BT549 breast cancer cells, HTRF cAMP)
- Format: cell-based
- details: antagonistic activity, PGE2 6 nM
pIC50: −log10 of the molar value.
test.readout: pIC50

Known pIC50 results, listed for orientation:
> print(dat)
                                   compound  readout.value
1  CCCc1cc(-c2cc(NCCc3cc4ccsc4cc3OC)ncn2)ccc1CC(=O)O [Example 385]           6.87
2  CSc1cc(-c2cc(NCCc3ccc4ccccc4c3)ncn2)ccc1C(=O)O [Ex 219]           6.89
3  COc1cc2ccccc2c(C)c1CCNc1cc(-c2ccc(CC(=O)O)c(SC)c2)ncn1 [Ex 163]           6.80
4  CCOc1cc2ccccc2cc1CCNc1cc(-c2ccc(OC(C)(C)C(=O)O)c(OCC)c2)ncn1 [Ex 245]           6.45
5  CCSc1cc(-c2cc(NCCc3cc4ccoc4cc3F)ncn2)ccc1C(=O)O [Ex 275]           6.33
6  CCOc1cc2c(cc1CCNc1cc(-c3ccc(CC(=O)O)c(OCC)c3)ncn1)OCCO2 [Ex 192]           6.68
7  COc1cc2ccsc2cc1CCNc1cc(-c2ccc(C(=O)O)c(SC)c2)ncn1 [Ex 152]           6.84

[a] CCOc1cc(-c2cc(NCCc3c(OC)cc4ccccc4c3F)ncn2)sc1C(=O)O [Ex 3]
[b] CCOc1cc(-c2cc(NCCc3cc4c(cc3SC)OCCO4)ncn2)ccc1OCC(=O)O [Ex 145]
[c] O=C(O)c1ccc(-c2cc(NCCc3ccc4c(c3)OCCC4)ncn2)cc1OC1CCC1 [Ex 265]
[d] CCOc1cc(-c2cc(NCCc3cc4c(cc3OC)CCCC4)ncn2)sc1C(=O)O [Ex 60]
// sort entries: pIC50, high to low Please list each label once, in the requested order.
a, d, b, c

Provenance of the data: patent US11839613B2
